# TESTED ON: T1, cynomolgus monkey GPVI extracellular domain fused at its C-terminus to human IgG1 Fc (GPVI-Fc) (cynomolgus monkey; human)
# T1 construct: also called cyGPVI-2; cyGPVI
# ASSAY PROTOCOL: Competition ELISA (MSD): cynomolgus GPVI-Fc preincubated with Fab, then on coated rat-tail collagen (competitor)
# Text: […]
Below, each entry is listed alongside its reported Max. inhibition at 200 nM Fab [%].
Answer format: numeric, % implied, no suffix.

Short answer for Reference Control Antibody RefFab #1 (humanized GPVI antibody of WO2011073954A2, SANOFI) (Fab, V domains shown, Cloned into mammalian Fab expression vectors; a glycine-serine linker (G4S)2 was added to the C-terminus of the Fab heavy chain) VH: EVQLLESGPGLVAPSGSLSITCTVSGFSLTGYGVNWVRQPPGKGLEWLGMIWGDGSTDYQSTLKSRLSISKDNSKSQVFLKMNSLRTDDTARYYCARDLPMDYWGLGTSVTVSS VL: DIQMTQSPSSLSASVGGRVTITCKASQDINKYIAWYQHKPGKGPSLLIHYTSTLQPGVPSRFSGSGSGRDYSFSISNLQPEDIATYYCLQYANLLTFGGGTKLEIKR : Max. inhibition at 200 nM Fab [%] was 99

Moving on to another binder below.
Short answer for Fab #4 comprising a modified heavy chain constant region (Fab, V domains shown, Human Fab from the Ylanthia library; produced in HKB11 cells; also called Fab #4 mod; HC) VH: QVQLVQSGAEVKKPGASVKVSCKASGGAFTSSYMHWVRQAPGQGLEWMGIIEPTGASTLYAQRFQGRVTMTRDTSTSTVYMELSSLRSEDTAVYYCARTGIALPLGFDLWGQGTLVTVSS VL: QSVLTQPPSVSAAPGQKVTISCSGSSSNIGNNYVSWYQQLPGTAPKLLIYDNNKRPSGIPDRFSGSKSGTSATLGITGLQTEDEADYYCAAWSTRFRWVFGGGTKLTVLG : Max. inhibition at 200 nM Fab [%] was 83
